Origin of the recorded values: ChEMBL document CHEMBL1138802

Assay: Volume of distribution after i.v. administration of 2 mg/kg to Dogs
Type: ADME, organism-based, Canis lupus familiaris
Set-up: dose 2 mg/kg, route intravenous
Settings: dog, in vivo, iv
Assay Readout: Vd (L/kg)
Report the figure in L/kg without appending any unit label.

Query: Vd; subject: COc1ccc(-c2c(Cl)ncn2-c2ccc(S(N)(=O)=O)cc2)cc1F
2.12

###

Test: Volume of distribution after i.v. administration of 1 mg/kg to Dogs
Format: ADME, organism-based, Canis lupus familiaris
Parameters: dose 1 mg/kg, route intravenous
Details: dog, in vivo, iv
Assay Readout: Vd (L/kg)
Report the figure in L/kg without appending any unit label.

Query: Vd; subject: COc1ccc(-c2c(Cl)ncn2-c2ccc(S(=O)(=O)NP(=O)(O)O)cc2)cc1F
1.86

###

Assay: Clearance after i.v. administration of 2 mg/kg to Dogs
Format: ADME, organism-based, Canis lupus familiaris
Design: dose 2 mg/kg, route intravenous
Details: dog, in vivo, iv
Assay Readout: clearance (mL/min/kg)
Report the figure in mL/min/kg without appending any unit label.

Query: clearance; subject: COc1ccc(-c2c(Cl)ncn2-c2ccc(S(N)(=O)=O)cc2)cc1F
4.87
